assayed-target: dopamine D2 receptors (Homo sapiens, UniProt P14416)
Sequence (P14416 whole entry): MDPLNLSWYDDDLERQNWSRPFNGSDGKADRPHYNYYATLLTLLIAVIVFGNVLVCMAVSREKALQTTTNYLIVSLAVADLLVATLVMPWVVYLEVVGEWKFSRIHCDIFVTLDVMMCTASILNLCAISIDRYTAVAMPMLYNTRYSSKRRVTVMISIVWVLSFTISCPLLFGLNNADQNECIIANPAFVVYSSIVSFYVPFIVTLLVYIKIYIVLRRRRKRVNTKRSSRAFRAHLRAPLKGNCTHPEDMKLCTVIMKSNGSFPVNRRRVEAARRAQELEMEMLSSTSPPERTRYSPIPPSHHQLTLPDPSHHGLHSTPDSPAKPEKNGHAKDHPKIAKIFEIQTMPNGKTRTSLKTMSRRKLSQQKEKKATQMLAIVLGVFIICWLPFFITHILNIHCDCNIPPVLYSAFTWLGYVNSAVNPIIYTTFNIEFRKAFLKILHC
assay-procedure: binding affinity for the D2 DA receptor
recorded-metric: Ki (nM)
Numbers only, in nM.

-- ask Request the reported Ki associated with O=S(=O)(Nc1ccc(CCN2CCN(c3ccccc3)CC2)cc1)c1ccccn1
-- reply 4.43
